Target: Recombinant human Bcl-2 protein (Homo sapiens (Human), UniProt P10415)
Sequence (P10415 whole entry): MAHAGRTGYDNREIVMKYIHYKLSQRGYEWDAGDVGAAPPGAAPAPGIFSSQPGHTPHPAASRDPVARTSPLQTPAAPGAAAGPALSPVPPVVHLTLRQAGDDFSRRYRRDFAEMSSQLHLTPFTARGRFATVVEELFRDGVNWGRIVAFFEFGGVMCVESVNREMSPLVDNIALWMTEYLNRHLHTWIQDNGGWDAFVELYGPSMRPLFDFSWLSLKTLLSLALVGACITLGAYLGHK
Assay: Bcl-2 TR-FRET Assay
Format: binding
Conditions: wild type Bcl-2; unit inferred; read-out: Bcl-2 WT
Method: Biological Example: Bcl-2 TR-FRET Assay Compounds disclosed herein were tested for blocking of Bcl-2 protein with its ligand in an assay based on Time-Resolved Fluorescence Resonance Energy Transfer (TR-FRET) methodology. […] The TR-FRET signals (337 nm-520 nm-490 nm) were read on BMG PHERAstar FSX instrument. The inhibition percentage of Bcl-2 interaction with its ligand in presence of increasing concentrations of compounds was calculated based on the TR-FRET signals. […]

{"COMPOUND": "COc1ccc(CN2CCN(C3CC4(CCN(c5ccc(C(=O)NS(=O)(=O)c6ccc(NC[C@H]7CC[C@](C)(O)CC7)c([N+](=O)[O-])c6)c(Oc6cnc7[nH]ccc7c6)c5)CC4)C3)[C@H](c3ccccc3C(C)C)C2)c(OC)c1 (single isomer, unassigned) [Example 48a]", "IC50, nM": 0.045}
{"COMPOUND": "COc1cc(CN2CCN(C3CC4(C3)CN(c3ccc(C(=O)NS(=O)(=O)c5ccc(NC[C@H]6CC[C@](C)(O)CC6)c([N+](=O)[O-])c5)c(Oc5cnc6[nH]cc(F)c6c5)c3)C4)[C@H](c3ccccc3C(C)C)C2)ccc1OC1CCC1", "IC50, nM": 0.48}
{"COMPOUND": "COc1cc(CN2CCN(C3CC4(C3)CN(c3ccc(C(=O)NS(=O)(=O)c5ccc(NC[C@H]6CC[C@](C)(O)CC6)c([N+](=O)[O-])c5)c(Oc5cnc6[nH]ccc6c5)c3)C4)[C@H](c3ccccc3C(C)C)C2)cc2cc(C)oc12", "IC50, nM": 0.28}
{"COMPOUND": "COc1cc(CN2CCN(C3CC4(C3)CN(c3ccc(C(=O)NS(=O)(=O)c5ccc(NC[C@H]6CC[C@](C)(O)CC6)c([N+](=O)[O-])c5)c(Oc5cnc6[nH]cc(F)c6c5)c3)C4)[C@H](c3ccccc3C(C)C)C2)cc2c1OCCC2", "IC50, nM": 0.08}

----------
Target: recombinant human Bcl-2 D103Y protein (Homo sapiens (Human), UniProt P10415, D103Y)
Sequence (P10415 whole entry D103Y): as the sequence (P10415 whole entry) above, with D103Y counted along it
Test: Bcl-2-D103Y Biochemical Assay (TR-FRET)
Settings: TR-FRET, FITC labeled Bak peptide
QUANTITY NAME: log10(IC50) (log10 of the value in nM)

{"MOLECULE": "COc1ccc(CN2CCN(C3CC4(CCN(c5ccc(C(=O)NS(=O)(=O)c6ccc(NC[C@H]7CC[C@](C)(O)CC7)c([N+](=O)[O-])c6)c(Oc6cnc7[nH]ccc7c6)c5)CC4)C3)[C@H](c3ccccc3C(C)C)C2)c(OC)c1 (single isomer, unassigned) [Example 48a]", "log10(IC50)": -1.00}
{"MOLECULE": "CC(C)c1ccccc1C1CN(Cc2ccc(OC(F)(F)F)cc2)CCN1C1CC2(CCN(c3ccc(C(=O)NS(=O)(=O)c4ccc(NC[C@H]5CC[C@](C)(O)CC5)c([N+](=O)[O-])c4)c(Oc4cnc5[nH]ccc5c4)c3)CC2)C1 (some centres unmarked) [Example 39]", "log10(IC50)": 0.58}
{"MOLECULE": "CC(C)c1ccccc1C1CN(Cc2ccc3sccc3c2)CCN1C1CC2(CCN(c3ccc(C(=O)NS(=O)(=O)c4ccc(NC[C@H]5CC[C@](C)(O)CC5)c([N+](=O)[O-])c4)c(Oc4cnc5[nH]ccc5c4)c3)CC2)C1 (some centres unmarked) [Example 58]", "log10(IC50)": 0.26}
{"MOLECULE": "COc1ccc(CN2CCN(C3CC4(CCN(c5ccc(C(=O)NS(=O)(=O)c6ccc(NCC7(F)CCOCC7)c([N+](=O)[O-])c6)c(Oc6cnc7[nH]ccc7c6)c5)CC4)C3)[C@H](c3ccccc3C(C)C)C2)cc1 (single isomer, unassigned) [Example 32]", "log10(IC50)": -0.96}
{"MOLECULE": "CC(C)c1ccccc1C1CN(Cc2ccc3occc3c2)CCN1C1CC2(CCN(c3ccc(C(=O)NS(=O)(=O)c4ccc(NC[C@H]5CC[C@](C)(O)CC5)c([N+](=O)[O-])c4)c(Oc4cnc5[nH]ccc5c4)c3)CC2)C1 (some centres unmarked) [Example 96]", "log10(IC50)": -0.64}
{"MOLECULE": "CC(C)c1ccccc1C1CN(Cc2ccc(N(C)C)cc2)CCN1C1CC2(CCN(c3ccc(C(=O)NS(=O)(=O)c4ccc(NC[C@H]5CC[C@](C)(O)CC5)c([N+](=O)[O-])c4)c(Oc4cnc5[nH]ccc5c4)c3)CC2)C1 (some centres unmarked) [Example 114]", "log10(IC50)": -0.40}
{"MOLECULE": "COc1cc(CN2CCN(C3CC4(CCN(c5ccc(C(=O)NS(=O)(=O)c6ccc(NC[C@H]7CC[C@](C)(O)CC7)c([N+](=O)[O-])c6)c(Oc6cnc7[nH]ccc7c6)c5)CC4)C3)[C@H](c3ccccc3C(C)C)C2)cc2c1OCC2 [Example 239]", "log10(IC50)": -0.92}
{"MOLECULE": "CC(C)c1ccccc1[C@@H]1CN(Cc2ccc(Cl)cc2)CCN1C1CC2(CCN(c3ccc(C(=O)NS(=O)(=O)c4ccc(NC[C@H]5CC[C@](C)(O)CC5)c([N+](=O)[O-])c4)c(Oc4cnc5[nH]ccc5c4)c3)CC2)C1 (single isomer, unassigned) [Example 29a]", "log10(IC50)": -0.42}
